All values here come from ChEMBL document CHEMBL1909593.

molecular target: UniProtKB P00749; assay: Inhibition of urokinase at 1000 uM
experimental-readout: inhibition (%)

N#C[C@H](CCCCN)NC(=O)c1ccc(OCc2ccncc2)c(NC(=O)Cc2ccc(F)cc2)c1	19

1 = N#C[C@H](CCCCN)NC(=O)c1ccc(OCc2ccncc2)cc1
2 = CC[C@@H](C)[C@@H](N)C(=O)N[C@@H](Cc1ccccc1)C(=O)N[C@@H](CCCCN)C(N)=O
// which entry has the larger inhibition value, 1 or 2 ? Give the chosen item's label as your response. 1

====

target: Plasma kallikrein (Homo sapiens, UniProt P03952); assay: Inhibition of plasma kallikrein at 1000 uM
Sequence (P03952 20-390 limits assumed): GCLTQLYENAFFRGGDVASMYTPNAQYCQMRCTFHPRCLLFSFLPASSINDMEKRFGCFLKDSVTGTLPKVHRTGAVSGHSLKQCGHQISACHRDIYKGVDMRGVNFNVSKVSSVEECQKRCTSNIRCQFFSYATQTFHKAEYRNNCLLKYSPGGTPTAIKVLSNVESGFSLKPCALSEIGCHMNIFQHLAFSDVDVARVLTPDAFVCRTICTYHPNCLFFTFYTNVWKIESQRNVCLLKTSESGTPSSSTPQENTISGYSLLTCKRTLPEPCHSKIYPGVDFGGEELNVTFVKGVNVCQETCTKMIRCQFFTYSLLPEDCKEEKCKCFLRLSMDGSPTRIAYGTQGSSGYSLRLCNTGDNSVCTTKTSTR
Sequence (P03952 391-638 limits assumed): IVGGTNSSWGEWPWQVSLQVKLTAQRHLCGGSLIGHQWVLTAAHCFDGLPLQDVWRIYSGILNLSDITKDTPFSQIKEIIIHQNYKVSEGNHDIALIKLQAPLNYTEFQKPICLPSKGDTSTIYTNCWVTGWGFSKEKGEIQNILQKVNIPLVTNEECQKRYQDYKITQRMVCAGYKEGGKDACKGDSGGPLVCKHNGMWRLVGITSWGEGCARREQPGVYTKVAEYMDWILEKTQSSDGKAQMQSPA
experimental-readout: inhibition (%)

As a guide, the following entries are already answered.
N#C[C@H](CCCCN)NC(=O)c1ccc(OCc2ccncc2)c(NC(=O)CCc2c[nH]c3ccccc23)c1	44
CC[C@@H](C)[C@@H](N)C(=O)N[C@@H](Cc1ccccc1)C(=O)N[C@@H](CCCCN)C(N)=O	0
CC[C@@H](C)[C@@H](N)C(=O)N[C@@H](Cc1ccccc1)C(=O)N[C@H](C#N)CCCCN	38

a = N#C[C@H](CCCCN)NC(=O)c1ccc(OCc2ccncc2)c(NC(=O)CCc2cn(Cc3ccc(F)cc3)c3ccccc23)c1
b = N#C[C@H](CCCCN)NC(=O)c1ccc(OCc2ccncc2)c(NC(=O)Cc2ccc(F)cc2)c1
Please indicate which item has the smaller measured inhibition: a versus b Your choice should be expressed through its label. a
(a: 0%, b: 11%)
